molecular target: Aminopeptidase N (Homo sapiens, UniProt P15144); assay: Inhibition of aminopeptidase-N in human ES2 cells using L-leu-p-nitroanilide as substrate incubated for 5 mins prior to substrate addition measured after 30 mins by spectrophotometric analysis
Sequence (P15144 whole entry): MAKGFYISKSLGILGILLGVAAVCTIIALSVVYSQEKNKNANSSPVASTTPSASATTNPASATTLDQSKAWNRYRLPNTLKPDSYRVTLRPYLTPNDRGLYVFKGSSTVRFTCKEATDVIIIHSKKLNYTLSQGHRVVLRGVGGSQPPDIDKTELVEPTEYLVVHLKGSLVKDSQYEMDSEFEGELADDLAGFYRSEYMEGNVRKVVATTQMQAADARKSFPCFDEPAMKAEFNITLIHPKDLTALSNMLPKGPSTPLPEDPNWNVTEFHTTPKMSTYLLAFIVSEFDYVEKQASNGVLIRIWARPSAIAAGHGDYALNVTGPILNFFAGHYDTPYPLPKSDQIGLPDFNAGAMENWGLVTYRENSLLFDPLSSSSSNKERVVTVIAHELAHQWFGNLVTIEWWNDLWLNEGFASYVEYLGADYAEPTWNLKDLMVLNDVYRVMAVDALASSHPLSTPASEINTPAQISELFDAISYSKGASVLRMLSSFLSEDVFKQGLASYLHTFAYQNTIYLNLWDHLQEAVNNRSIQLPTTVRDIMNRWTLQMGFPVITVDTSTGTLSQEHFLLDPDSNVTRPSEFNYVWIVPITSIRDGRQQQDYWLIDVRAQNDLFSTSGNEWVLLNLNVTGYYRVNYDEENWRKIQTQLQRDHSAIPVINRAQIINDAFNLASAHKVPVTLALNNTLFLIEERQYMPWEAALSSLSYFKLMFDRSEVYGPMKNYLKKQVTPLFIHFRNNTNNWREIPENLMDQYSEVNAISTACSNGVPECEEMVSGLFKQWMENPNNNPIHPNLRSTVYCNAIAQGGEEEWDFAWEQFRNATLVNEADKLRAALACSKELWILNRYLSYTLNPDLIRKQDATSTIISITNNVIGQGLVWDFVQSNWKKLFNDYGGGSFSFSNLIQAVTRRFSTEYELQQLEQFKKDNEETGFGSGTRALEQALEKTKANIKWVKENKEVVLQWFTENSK
Just a reminder that ties go to label 0: only IC50 strictly below 10 µM counts as label 1.

# givenSmiles, label
data = [
    ("O=C(CN1C(=O)C2(OCCCCO2)c2cc(Cl)ccc21)NO", "label 1"),
    ("O=C(CN1C(=O)C2(OCCCO2)c2cc(F)ccc21)NO", "label 0"),
    ("O=C(CN1C(=O)C2(OCCO2)c2cc(F)ccc21)NO", "label 0"),
    ("O=C(CN1C(=O)C2(OCCCCO2)c2cc(F)ccc21)NO", "label 0"),
    ("O=C(CN1C(=O)C2(OCCCO2)c2cc(Cl)ccc21)NO", "label 0"),
]

QUERY: Check if IC50 falls below 10 µM for `O=C(CN1C(=O)C2(OCCCO2)c2cc(Br)ccc21)NO` .
RESULT: label 0

QUERY: Could you please tell me whether IC50 recorded for `O=C(CN1C(=O)C2(OCCCCO2)c2cc(Br)ccc21)NO` is less than 10 µM?
RESULT: label 0

QUERY: Determine whether this compound shows IC50 lower than 10 µM (ties excluded): `O=C(CN1C(=O)C2(OCCO2)c2cc(Cl)ccc21)NO`
RESULT: label 1

Entry source: ChEMBL document CHEMBL2375252
